biological target: C-C chemokine receptor type 5 (Homo sapiens); type: cell membranes, HEK293, Membrane; conditions: hek293; also: in other assays of this panel Not Active means under 50% inhibition at 10 µM
Sequence (P51681 whole entry): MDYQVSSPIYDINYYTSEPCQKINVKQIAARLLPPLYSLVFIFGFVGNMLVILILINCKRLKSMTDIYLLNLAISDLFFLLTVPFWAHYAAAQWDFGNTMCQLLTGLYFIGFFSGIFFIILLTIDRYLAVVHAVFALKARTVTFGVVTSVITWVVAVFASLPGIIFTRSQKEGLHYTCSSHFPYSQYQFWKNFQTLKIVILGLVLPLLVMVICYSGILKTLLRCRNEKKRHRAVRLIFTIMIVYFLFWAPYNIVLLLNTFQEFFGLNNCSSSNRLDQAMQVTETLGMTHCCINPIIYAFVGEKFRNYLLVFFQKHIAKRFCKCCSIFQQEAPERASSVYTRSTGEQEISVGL
RECORDED METRIC: IC50

[[record]]
chemical_structure = "CC(C)(C#N)c1cc(Cn2cncn2)cc(C(C)(C)C#N)c1"
test_system = "C-C chemokine receptor type 5 (Homo sapiens)"
endpoint_result = "Not Active"

[[record]]
chemical_structure = "OC[C@H]1OC2C3[C@@H](CO)OC(O[C@H]4[C@H](O)[C@@H](O)[C@@H](O[C@H]5[C@H](O)[C@@H](O)[C@@H](O[C@H]6[C@H](O)[C@@H](O)[C@@H](O[C@H]7[C@H](O)[C@@H](O)[C@@H](O[C@H]8[C@H](O)[C@@H](O)[C@@H](O[C@H]9[C@H](O)[C@@H](O)C(OC1[C@H](O)[C@H]2O)O[C@@H]9CO)O[C@@H]8CO)O[C@@H]7CO)O[C@@H]6CO)O[C@@H]5CO)O[C@@H]4CO)[C@H](O)[C@H]3O"
test_system = "C-C chemokine receptor type 5 (Homo sapiens)"
endpoint_result = "Not Active"

[[record]]
chemical_structure = "OC[C@H]1O[C@@H]2O[C@H]3[C@H](O)[C@@H](O)[C@@H](O[C@H]4[C@H](O)[C@@H](O)[C@@H](O[C@H]5[C@H](O)[C@@H](O)[C@@H](O[C@H]6[C@H](O)[C@@H](O)[C@@H](O[C@H]7[C@H](O)[C@@H](O)[C@@H](O[C@H]8[C@H](O)[C@@H](O)[C@@H](O[C@H]1[C@H](O)[C@H]2O)O[C@@H]8CO)O[C@@H]7CO)O[C@@H]6CO)O[C@@H]5CO)O[C@@H]4CO)O[C@@H]3CO"
test_system = "C-C chemokine receptor type 5 (Homo sapiens)"
endpoint_result = "Not Active"

[[record]]
chemical_structure = "ClC1=C(Cl)[C@]2(Cl)[C@@H]3[C@@H]4C[C@@H]([C@H]5O[C@@H]45)[C@@H]3[C@@]1(Cl)C2(Cl)Cl"
test_system = "C-C chemokine receptor type 5 (Homo sapiens)"
endpoint_result = "Not Active"


The measurements presented in this section are drawn from ChEMBL document CHEMBL1909046.
